# System: SK-MEL-2
# Test description: Drug combination assay, SK-MEL-2
# Assay type: cell-based
# Experimental parameters: Combination Index at ED50, CalcuSyn 2.1; listed drug + compound 19
CI in SK-MEL-2 with compound 19 values for the compounds below.

[Q] Param item = Cn1c(=O)n(-c2ccc(C(C)(C)C#N)cc2)c2c3cc(-c4cnc5ccccc5c4)ccc3ncc21 [BEZ 235] ; retrieve measured CI in SK-MEL-2 with compound 19.
[A] 0.21

[Q] Same question for Cc1[nH]c2ccccc2c1CCNCc1ccc(/C=C/C(=O)NO)cc1 [Panobinostat] please.
[A] 0.76

[Q] Same question for COc1cc(C2Oc3cc([C@H]4Oc5cc(O)cc(O)c5C(=O)[C@@H]4O)ccc3OC2CO)ccc1O (stereo partly shown) [Silibinin] please.
[A] 0.89

[Q] Same question for CO[C@H]1C[C@@H]2CC[C@@H](C)[C@@](O)(O2)C(=O)C(=O)N2CCCC[C@H]2C(=O)O[C@H]([C@H](C)C[C@@H]2CC[C@@H](OC(=O)C(C)(CO)CO)[C@H](OC)C2)CC(=O)[C@H](C)/C=C(\C)[C@@H](O)[C@@H](OC)C(=O)[C@H](C)C[C@H](C)/C=C/C=C/C=C/1C [Temsirolimus] please.
[A] 0.68

* * *

# System: PC3
# Test description: In vitro cytotoxicity analysis, PC3
# Format: cell-based
# Experimental parameters: Homo sapiens, PC-3; Table III; read-out: PC3 IC50
Measure: IC50

Consider the following illustrative entries.
>  <Smiles repr>
CC(/C=C/[C@@H]1C[C@]2(CO2)CC(C)(C)O1)=C\C[C@H]1OC[C@@H](NC(=O)/C=C\[C@H](C)OC(N)=O)CO1

>  <IC50>
> 10 µM

$$$$
>  <Smiles repr>
CCCCNC(=O)O[C@@H](C)/C=C\C(=O)N[C@H]1CO[C@@H](C/C=C(C)/C=C/[C@@H]2C[C@]3(CO3)CC(C)(C)O2)OC1

>  <IC50>
> 10 µM

$$$$

[Q] Param item = "COCCNC(=O)O[C@@H](C)/C=C\C(=O)N[C@H]1CO[C@@H](C/C=C(C)/C=C/[C@@H]2C[C@]3(CO3)CC(C)(C)O2)OC1" ; retrieve measured IC50.
[A] > 10 µM

* * *

# Test description: In vivo plasma pharmacokinetic study in C.B-17 scid mice
# Experimental parameters: male, C.B-17 scid, mouse, plasma, iv; i.v. infusion over 30 min (100 mg/kg, 50 mg/kg elsewhere in the source); population mean
Measure: clearance (mL/min/kg)
Give the quantity in mL/min/kg, number only.

[Q] Param item = "CNC(=O)O[C@@H](C)/C=C\C(=O)N[C@H]1CC[C@@H](C/C=C(C)/C=C/[C@@H]2C[C@]3(CO3)CC(C)(C)O2)CC1" ; retrieve measured clearance.
[A] 280

* * *

# Test description: In vivo plasma pharmacokinetic study in C.B-17 scid mice
# Experimental parameters: male, C.B-17 scid, mouse, plasma, iv, 100 mg/kg; i.v. infusion over 30 min; population mean terminal elimination half-life
Measure: half-life (min)
Give the quantity in min, number only.

[Q] Param item = "CNC(=O)O[C@@H](C)/C=C\C(=O)N[C@H]1CC[C@@H](C/C=C(C)/C=C/[C@@H]2C[C@]3(CO3)CC(C)(C)O2)CC1" ; retrieve measured half-life.
[A] 2.18
